Examples of compounds with documented CC50 follow.
# EXPERIMENT NOTES: Cytotoxicity against HeLaM cells
# Assay type: cell-based, M-HeLa
# ASSAY CONDITIONS: human

Example cases with answers are listed next.
Cc1ccc(O)c(Cn2c(NC3CCN(CCO)CC3)nc3c(C)cccc32)n1: > 100 µM
Cc1ccc(O)c(Cn2c(NC3CCN(CCCS(N)(=O)=O)CC3)nc3c(C)cccc32)n1: > 100 µM
CCCCNc1nc2c(C)cc(C)cc2n1Cc1nc(C)ccc1O: 7.94 µM
Cc1cc(C)c2nc(NCCNc3ccccc3)n(Cc3nc(C)ccc3O)c2c1: 3.16 µM

*Q* Fill in: CC50 of Cc1ccc(O)c(Cn2c(NC3CCN(CCN4CCOCC4)CC3)nc3c(C)cccc32)n1 is ___
*A* 63.1 µM

*Q* CC50 lookup needed for Cc1cc(C)c2nc(NCCCN)n(Cc3nc(C)ccc3O)c2c1 , thanks.
*A* > 100 µM

*Q* Give the measured CC50 of Cc1ccc(O)c(Cn2c(NC3CCN(CC(O)C(C)(C)C)CC3)nc3c(C)cccc32)n1 (stereo not drawn) .
*A* 39.8 µM

*Q* Entry Cc1ccc(O)c(Cn2c(NC3CCN(CCC(C)C)CC3)nc3c(C)cccc32)n1 has what CC50?
*A* > 100 µM

*Q* Form field: reported CC50 of Cc1cc(C)c2nc(NCCc3ccccc3)n(Cc3nc(C)ccc3O)c2c1
*A* 6.31 µM

*Q* Looking for the measured CC50 of Cc1ccc(O)c(Cn2c(NC3CCN(CC(O)CN(C)C)CC3)nc3c(C)cccc32)n1 (stereo not drawn) , can you help?
*A* > 100 µM

----------
# EXPERIMENT NOTES: Drug level in Sprague-Dawley rat plasma after 24 hrs
# Assay type: ADME, cell-free
# ASSAY CONDITIONS: read-out: Drug uptake
OBSERVABLE: concentration at 24 h (ng/mL)
Note: unit ng/mL is implicit; provide only the numeric part.

NCCN1CCC(Nc2nc3ccccc3[nH]2)CC1: 6.1

Shift focus to the following entry.
*Q* Consider the molecule Cc1ccc(O)c(Cn2c(NC3CCN(CCN)CC3)nc3c(C)cccc32)n1 and give its measured concentration at 24 h.
*A* 0.33

----------
# EXPERIMENT NOTES: Drug level in Sprague-Dawley rat lung after 96 hrs
# Assay type: ADME, tissue-based
# ASSAY CONDITIONS: read-out: Drug uptake
OBSERVABLE: concentration at 96 h (ng/mL)
Numeric only. Scale: ng/mL

Cc1ccc(O)c(Cn2c(NC3CCN(CCN)CC3)nc3c(C)cccc32)n1: 439

*Q* Dear colleague, I am looking for the recorded concentration at 96 h of the following molecule: NCCN1CCC(Nc2nc3ccccc3[nH]2)CC1
*A* 83.7

----------
Below is a list of entries, each paired with its recorded concentration at 24 h value.
# EXPERIMENT NOTES: Drug level in Sprague-Dawley rat lung after 24 hrs
# Type: ADME, tissue-based
# ASSAY CONDITIONS: read-out: Drug uptake
Output spec: scalar in ng/mL, unitless text.

Cc1ccc(O)c(Cn2c(NC3CCN(CCN)CC3)nc3c(C)cccc32)n1: 559

Please look at the following compound next.
*Q* State the recorded concentration at 24 h for this entry: NCCN1CCC(Nc2nc3ccccc3[nH]2)CC1
*A* 295

FYI, the data here is from ChEMBL document CHEMBL1148783.
